Recorded values, source ChEMBL document CHEMBL1157208.

# System: Mus musculus
# PROTOCOL DETAILS: Neurotoxicity in mouse at 300 mg/kg, ip after 0.5 hrs by rotarod test
# Type: toxicity, organism-based
# Parameters: dose 300 mg/kg, route intraperitoneal
# PARTICULARS: in vivo
PROPERTY: Activity

Some compounds with known Activity results, for comparison:
COMPOUND: COc1ccc(/C=C/c2nc3ccccc3c(=O)n2-c2nnc(-c3ccc(Cl)cc3)s2)cc1
MEASURED ON: Mus musculus
PROPERTY: Activity
REPORTED: Not Active

COMPOUND: CCCC(CCC)C(=O)[O-].[Na+] [VALPROATE SODIUM]
MEASURED ON: Mus musculus
PROPERTY: Activity
REPORTED: Not Active

COMPOUND: Cc1ccc(/C=C/c2nc3ccccc3c(=O)n2-c2nnc(-c3ccc(C)cc3)s2)cc1
MEASURED ON: Mus musculus
PROPERTY: Activity
REPORTED: Not Active

COMPOUND: COc1ccc(/C=C/c2nc3ccccc3c(=O)n2-c2nnc(-c3cccc(Cl)c3)s2)cc1
MEASURED ON: Mus musculus
PROPERTY: Activity
REPORTED: Not Active

COMPOUND: Cc1ccc(/C=C/c2nc3ccccc3c(=O)n2-c2nnc(/C=C/c3ccccc3)s2)cc1
MEASURED ON: Mus musculus
PROPERTY: Activity
REPORTED: Not Active

COMPOUND: COc1ccc(-c2nnc(-n3c(/C=C/c4ccccc4)nc4ccccc4c3=O)s2)cc1
MEASURED ON: Mus musculus
PROPERTY: Activity
REPORTED: Not Active

COMPOUND: Cc1ccc(/C=C/c2nc3ccccc3c(=O)n2-c2nnc(-c3ccc(Cl)cc3)s2)cc1
MEASURED ON: Mus musculus
PROPERTY: Activity
REPORTED: Not Active

COMPOUND: COc1ccc(/C=C/c2nc3ccccc3c(=O)n2-c2nnc(-c3ccc(C)cc3)s2)cc1
MEASURED ON: Mus musculus
PROPERTY: Activity
REPORTED: Not Active

COMPOUND: Cc1ccc(/C=C/c2nc3ccccc3c(=O)n2-c2nnc(-c3ccccc3)s2)cc1
MEASURED ON: Mus musculus
PROPERTY: Activity
REPORTED: Not Active

COMPOUND: O=c1c2ccccc2nc(/C=C/c2ccccc2)n1-c1nnc(-c2ccc(Cl)cc2)s1
MEASURED ON: Mus musculus
PROPERTY: Activity
REPORTED: Not Active

Answer for every listed entry: what is its Activity? The entries follow.
1. Cc1ccc(-c2nnc(-n3c(/C=C/c4ccccc4)nc4ccccc4c3=O)s2)cc1
2. O=c1c2ccccc2nc(/C=C/c2ccccc2)n1-c1nnc(-c2ccccc2)s1
3. COc1ccc(/C=C/c2nc3ccccc3c(=O)n2-c2nnc(/C=C/c3ccccc3)s2)cc1
4. COc1ccc(-c2nnc(-n3c(/C=C/c4ccc(C)cc4)nc4ccccc4c3=O)s2)cc1

Response:
1: Not Active; 2: Not Active; 3: Not Active; 4: Not Active

Look up Activity for the entries below, preserving their order.
1. Cc1ccc(/C=C/c2nc3ccccc3c(=O)n2-c2nnc(-c3cccc(Cl)c3)s2)cc1
2. CCC1(C)CC(=O)NC1=O (stereo unspecified) [ETHOSUXIMIDE]

Response:
1: Not Active; 2: Not Active

====

# Tested on: Mus musculus
# PROTOCOL DETAILS: Anticonvulsant activity in ip dosed mouse assessed as inhibition of maximal electroshock-induced seizures after 0.5 hrs
# Format: functional
PROPERTY: Activity (mg/kg)
Answers are plain numbers, in mg/kg.

Answered examples (3):
COMPOUND: NC(=O)N1c2ccccc2C=Cc2ccccc21 [CARBAMAZEPINE]
UNIT NAME: mg/kg
REPORTED: 30
--
COMPOUND: O=c1c2ccccc2nc(/C=C/c2ccccc2)n1-c1nnc(-c2ccccc2)s1
UNIT NAME: mg/kg
REPORTED: 30
--
COMPOUND: O=C1NC(=O)C(c2ccccc2)(c2ccccc2)N1
UNIT NAME: mg/kg
REPORTED: 30

Query: Field request: Activity | item: O=c1c2ccccc2nc(/C=C/c2ccccc2)n1-c1nnc(-c2ccc(Cl)cc2)s1
Response: 100

====

# Tested on: Mus musculus
# PROTOCOL DETAILS: Sedative-hypnotic effect in mouse assessed as decrease locomotor activity score at 100 mg/kg, ip after 0.5 hrs by actophotometer
# Assay type: functional
# PARTICULARS: route intraperitoneal
Lab note: anything with Activity at or over 400 counts as yes (1); the rest go in no (0).

Query: Confirm if Activity reported for the molecule COc1ccc(/C=C/c2nc3ccccc3c(=O)n2-c2nnc(-c3ccc(Cl)cc3)s2)cc1 is 400 or above.
Response: no (0)

Query: Now consider Cc1ccc(/C=C/c2nc3ccccc3c(=O)n2-c2nnc(-c3ccccc3)s2)cc1 and answer again.
Response: no (0)

Query: Try this molecule too: O=c1c2ccccc2nc(/C=C/c2ccccc2)n1-c1nnc(-c2cccc(Cl)c2)s1
Response: no (0)

Query: Another: Cc1ccc(/C=C/c2nc3ccccc3c(=O)n2-c2nnc(-c3ccc(C)cc3)s2)cc1
Response: no (0)

Query: Let us now turn to COc1ccc(/C=C/c2nc3ccccc3c(=O)n2-c2nnc(-c3ccc(OC)cc3)s2)cc1
Response: no (0)

Query: Entry to check: O=c1c2ccccc2nc(/C=C/c2ccccc2)n1-c1nnc(-c2ccc(Cl)cc2)s1
Response: no (0)

Query: What about COc1ccc(-c2nnc(-n3c(/C=C/c4ccc(C)cc4)nc4ccccc4c3=O)s2)cc1 ?
Response: no (0)

Query: Next molecule: COc1ccc(-c2nnc(-n3c(/C=C/c4ccccc4)nc4ccccc4c3=O)s2)cc1
Response: no (0)

Query: Now the molecule O=c1c2ccccc2nc(/C=C/c2ccccc2)n1-c1nnc(-c2ccccc2)s1
Response: yes (1)

Query: Next up: Cc1ccc(-c2nnc(-n3c(/C=C/c4ccccc4)nc4ccccc4c3=O)s2)cc1
Response: yes (1)

Query: Now try COc1ccc(/C=C/c2nc3ccccc3c(=O)n2-c2nnc(/C=C/c3ccccc3)s2)cc1 .
Response: no (0)

Query: Continue with O=c1c2ccccc2nc(/C=C/c2ccccc2)n1-c1nnc(/C=C/c2ccccc2)s1
Response: no (0)

Query: Another molecule to look at: COc1ccc(/C=C/c2nc3ccccc3c(=O)n2-c2nnc(-c3ccccc3)s2)cc1
Response: yes (1)

Query: # repeat for COc1ccc(/C=C/c2nc3ccccc3c(=O)n2-c2nnc(-c3ccc(C)cc3)s2)cc1
Response: no (0)

Query: Input Cc1ccc(/C=C/c2nc3ccccc3c(=O)n2-c2nnc(-c3ccc(Cl)cc3)s2)cc1
Response: no (0)

Query: Likewise for COc1ccc(/C=C/c2nc3ccccc3c(=O)n2-c2nnc(-c3cccc(Cl)c3)s2)cc1 ?
Response: no (0)

Query: Note, next up: Cc1ccc(/C=C/c2nc3ccccc3c(=O)n2-c2nnc(-c3cccc(Cl)c3)s2)cc1
Response: no (0)

Query: What about Cc1ccc(/C=C/c2nc3ccccc3c(=O)n2-c2nnc(/C=C/c3ccccc3)s2)cc1 ?
Response: no (0)

====

# System: Mus musculus
# PROTOCOL DETAILS: Neurotoxicity in ip dosed mouse after 0.5 hrs by rotarod test
# Format: toxicity, organism-based
# PARTICULARS: in vivo
Assignment: determine reported Activity for the given molecules.
Answers are plain numbers, in mg/kg.

MOLECULE: COc1ccc(/C=C/c2nc3ccccc3c(=O)n2-c2nnc(-c3ccc(OC)cc3)s2)cc1
UNIT NAME: mg/kg
Activity: 300
//
MOLECULE: O=c1c2ccccc2nc(/C=C/c2ccccc2)n1-c1nnc(-c2cccc(Cl)c2)s1
UNIT NAME: mg/kg
Activity: 300
//
MOLECULE: O=C1NC(=O)C(c2ccccc2)(c2ccccc2)N1
UNIT NAME: mg/kg
Activity: 100
//
MOLECULE: NC(=O)N1c2ccccc2C=Cc2ccccc21 [CARBAMAZEPINE]
UNIT NAME: mg/kg
Activity: 100

Okay, now this molecule:
Query: Data request, read-out Activity, for O=c1c2ccccc2nc(/C=C/c2ccccc2)n1-c1nnc(/C=C/c2ccccc2)s1
Response: 300
